Listing: protein stability index of selected variants
B1: RHOBTB3 (parent)
chain: QLQSMPSRELASMNLDIVDLLKKA

Variants of: B1
measurementProtocol: protein stability index of a GFP-peptide fusion (GPS, HEK-293T) (PSI 1-6); higher = more stable;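 further: lentivirally expressed fusions sorted by FACS into six bins by GFP to DsRed ratio, PSI derived from sequencing read proportions per bin multiplied by bin number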
experimentalSetup: c terminus: a fixed tail appended
Lab note: record just the number, no unit beside it.

Here are 3 variants together with their reported answers.
S4E	4.83
L10T	4.32
D16L	2.63

Query: Endpoint output: protein stability index of L10S . Value?
Reply: 4.49

Query: Endpoint output: protein stability index of N14W . Value?
Reply: 2.37
